Target: epidermal growth factor receptor (EGFR) tyrosine kinase (TK) (Homo sapiens)
Construct: purchased Cell Signaling Technology
Sequence (P00533 25-1210): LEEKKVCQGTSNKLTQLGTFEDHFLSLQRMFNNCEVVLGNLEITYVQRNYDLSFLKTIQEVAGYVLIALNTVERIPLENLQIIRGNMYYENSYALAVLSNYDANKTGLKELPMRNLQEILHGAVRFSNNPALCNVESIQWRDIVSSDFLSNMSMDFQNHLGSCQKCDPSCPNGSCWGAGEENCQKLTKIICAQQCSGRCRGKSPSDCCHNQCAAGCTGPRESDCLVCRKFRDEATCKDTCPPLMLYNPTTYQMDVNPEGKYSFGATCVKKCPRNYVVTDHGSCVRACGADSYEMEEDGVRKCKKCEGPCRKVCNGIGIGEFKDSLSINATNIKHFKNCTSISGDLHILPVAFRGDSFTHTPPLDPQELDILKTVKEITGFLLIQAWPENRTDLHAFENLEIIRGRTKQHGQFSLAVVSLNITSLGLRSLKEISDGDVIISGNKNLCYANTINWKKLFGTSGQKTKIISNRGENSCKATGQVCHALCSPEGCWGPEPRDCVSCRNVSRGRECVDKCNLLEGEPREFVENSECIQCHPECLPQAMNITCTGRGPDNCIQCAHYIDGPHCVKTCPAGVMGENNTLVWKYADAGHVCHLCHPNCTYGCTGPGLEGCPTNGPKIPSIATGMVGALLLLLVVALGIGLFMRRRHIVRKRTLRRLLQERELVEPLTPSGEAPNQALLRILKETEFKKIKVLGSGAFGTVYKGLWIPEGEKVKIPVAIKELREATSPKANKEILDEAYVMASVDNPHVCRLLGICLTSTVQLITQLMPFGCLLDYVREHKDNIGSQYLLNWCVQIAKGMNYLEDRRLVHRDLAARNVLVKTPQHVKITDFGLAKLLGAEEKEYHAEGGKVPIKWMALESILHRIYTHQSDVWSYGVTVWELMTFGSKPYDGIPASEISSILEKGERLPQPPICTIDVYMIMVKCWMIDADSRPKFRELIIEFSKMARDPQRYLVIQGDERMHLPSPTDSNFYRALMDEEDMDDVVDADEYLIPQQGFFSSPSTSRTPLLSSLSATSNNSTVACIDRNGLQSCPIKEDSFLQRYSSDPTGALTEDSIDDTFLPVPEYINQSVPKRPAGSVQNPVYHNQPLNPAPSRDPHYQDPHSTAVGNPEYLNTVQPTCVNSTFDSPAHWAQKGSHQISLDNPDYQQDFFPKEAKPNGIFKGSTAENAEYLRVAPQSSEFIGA
Assay: EGFR TK inhibition assay (HT Scan EGFR kinase assay kit)
Format: biochemical
Settings: GST-EGFR protein, 400 μM ATP
Method: The compound (4b) bears flexible benzylamine terminal moiety, while the (6a) and (6c) derivatives bear sulphonamide moieties and 9a–b with Schiff fragments. EGFR kinase activity was measured by HT Scan EGFR kinase assay kits (Cell Signaling Technology, Danvers, MA, USA). […] At the end of the assay, the enrichment solution was added and enzyme activity was assessed in the Wallac Victor II 1420 micro-plate reader (Abcam, Milton, Cambridge, UK) and 1% penicillin-streptomycin. […]
Each entry below carries its reported IC50.
Respond numerically; units are nM and should not be typed.

Here is how some molecules turned out for IC50.
{"columns": ["MOLECULE", "TARGET_OR_TEST_SYSTEM", "MEASURED_VALUE"],
 "data": [
  ["O=C(Nc1ccccc1C(=O)Nc1ccc(S(=O)(=O)Nc2nccs2)cc1)c1ccco1 [Compound 6c]", "epidermal growth factor receptor (EGFR) tyrosine kinase (TK) (Homo sapiens)", 110],
  ["NS(=O)(=O)c1ccc(NC(=O)c2ccccc2NC(=O)c2ccco2)cc1 [Compound 6a]", "epidermal growth factor receptor (EGFR) tyrosine kinase (TK) (Homo sapiens)", 85.4]
]}

As a next step, examine the molecule that follows.
If you can, please state the reported IC50 value of O=C(Nc1ccccc1C(=O)N/N=C/c1ccccc1)c1ccco1 [Compound 9a] .
59.3
